# study.target: T1, human PD-L1 expressed on 300.19 cells (human, UniProt Q9NZQ7 19-290)
# T1 construct: whole, on cells; also called huPD-L1; PD-L1-expressing 300.19 cells
# T1 sequence (Q9NZQ7 19-290): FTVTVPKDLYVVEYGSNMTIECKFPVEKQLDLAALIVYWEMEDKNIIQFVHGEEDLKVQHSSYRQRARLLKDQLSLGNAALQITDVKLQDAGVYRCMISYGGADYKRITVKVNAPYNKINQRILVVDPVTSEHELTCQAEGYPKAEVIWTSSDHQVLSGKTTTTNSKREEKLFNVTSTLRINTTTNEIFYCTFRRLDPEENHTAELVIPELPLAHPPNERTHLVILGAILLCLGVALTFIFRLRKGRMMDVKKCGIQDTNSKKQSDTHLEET
# test: semi-quantitative ranking in the binding studies (4th column, p-1058; FACS data, p-1056); high number = poorer binder; the column's head says only 'Rank'
Provide the recorded Rank for the entries that follow.

Q: Can you share its Rank? I mean this binder: BAP058-hum03 (antibody, human IgG4 S228P, kappa, V domains shown, Humanized IgG4(S228P)/human kappa mAb expressed in CHO cells) VH: EVQLVQSGAEVKKPGATVKISCKVSGYTFTSYWMYWVRQATGQGLEWMGRIDPNSGSTKYNEKFKNRVTITADKSTSTAYMELSSLRSEDTAVYYCARDYRKGLYAMDYWGQGTTVTVSS VL: EIVLTQSPDFQSVTPKEKVTITCKASQDVGTAVAWYLQKPGQSPQLLIYWASTRHTGVPDRFSGSGSGTDFTLKISRVEAEDVGVYYCQQYNSYPLTFGQGTKVEIKR
A: 1

Q: Can you share its Rank? I mean this binder: BAP058-hum12 (antibody, human IgG4 S228P, kappa, V domains shown, Humanized IgG4(S228P)/human kappa mAb expressed in CHO cells) VH: EVQLVQSGAEVKKPGESLRISCKGSGYTFTSYWMYWVRQAPGQGLEWMGRIDPNSGSTKYNEKFKNRVTISVDTSKNQFSLKLSSVTAADTAVYYCARDYRKGLYAMDYWGQGTTVTVSS VL: DIQMTQSPSSLSASVGDRVTITCKASQDVGTAVAWYQQKPGQAPRLLIYWASTRHTGVPSRFSGSGSGTDFTFTISSLQPEDIATYYCQQYNSYPLTFGQGTKVEIKR
A: 4

Q: Quick check: Rank of BAP058-hum06 (antibody, human IgG4 S228P, kappa, V domains shown, Humanized IgG4(S228P)/human kappa mAb expressed in CHO cells) VH: EVQLVQSGAEVKKPGESLRISCKGSGYTFTSYWMYWIRQPPGKGLEWIGRIDPNSGSTKYNEKFKNRVTITADKSTSTAYMELSSLRSEDTAVYYCARDYRKGLYAMDYWGQGTTVTVSS VL: EIVLTQSPDFQSVTPKEKVTITCKASQDVGTAVAWYLQKPGQSPQLLIYWASTRHTGVPSRFSGSGSGTDFTFTISSLQPEDIATYYCQQYNSYPLTFGQGTKVEIKR ?
A: 2
